Values were extracted from patent US9133186B2.

Molecular target: human AMPK α1β1γ1 enzyme (Homo sapiens, UniProt Q13131+Q9Y478)
Construct: purchased Carna Biosciences, Inc
Sequence (Q13131 10-559 limits assumed): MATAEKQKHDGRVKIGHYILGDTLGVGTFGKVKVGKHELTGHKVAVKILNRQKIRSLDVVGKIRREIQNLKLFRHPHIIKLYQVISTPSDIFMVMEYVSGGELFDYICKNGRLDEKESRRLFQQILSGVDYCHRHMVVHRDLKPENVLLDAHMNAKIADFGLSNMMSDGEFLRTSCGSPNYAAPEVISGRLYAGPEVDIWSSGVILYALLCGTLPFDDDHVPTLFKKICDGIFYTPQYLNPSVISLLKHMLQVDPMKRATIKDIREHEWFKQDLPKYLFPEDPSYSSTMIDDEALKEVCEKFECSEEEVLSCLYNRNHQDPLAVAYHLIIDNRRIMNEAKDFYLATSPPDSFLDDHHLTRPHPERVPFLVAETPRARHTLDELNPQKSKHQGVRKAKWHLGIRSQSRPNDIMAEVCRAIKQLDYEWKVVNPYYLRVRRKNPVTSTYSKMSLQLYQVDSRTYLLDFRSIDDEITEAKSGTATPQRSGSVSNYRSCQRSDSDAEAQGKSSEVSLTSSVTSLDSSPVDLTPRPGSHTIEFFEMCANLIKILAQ
Sequence (Q9Y478 whole entry): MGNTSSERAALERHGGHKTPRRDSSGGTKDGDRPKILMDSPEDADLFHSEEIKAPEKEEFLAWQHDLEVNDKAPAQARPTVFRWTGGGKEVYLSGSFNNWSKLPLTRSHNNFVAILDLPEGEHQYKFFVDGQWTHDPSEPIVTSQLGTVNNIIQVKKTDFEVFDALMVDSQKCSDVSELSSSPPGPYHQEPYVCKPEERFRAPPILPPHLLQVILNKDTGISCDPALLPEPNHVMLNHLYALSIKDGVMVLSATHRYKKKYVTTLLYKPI
Sequence (P54619 whole entry partner): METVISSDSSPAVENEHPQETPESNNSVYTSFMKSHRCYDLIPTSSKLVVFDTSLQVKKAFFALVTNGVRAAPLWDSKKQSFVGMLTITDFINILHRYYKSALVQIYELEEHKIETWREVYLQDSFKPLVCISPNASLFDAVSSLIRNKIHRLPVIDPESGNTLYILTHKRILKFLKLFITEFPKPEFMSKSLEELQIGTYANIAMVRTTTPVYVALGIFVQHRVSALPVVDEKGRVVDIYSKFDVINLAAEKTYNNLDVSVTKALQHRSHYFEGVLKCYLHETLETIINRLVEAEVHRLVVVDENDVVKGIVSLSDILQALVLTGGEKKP
Assay: AMPK activator evaluation, Test Example 1 (mobility shift, FL-Peptide 7)
Type: biochemical
Conditions: human AMPK α1β1γ1, control without compound = 100%
Give EC150 (compound concentration showing 150% relative to the control) for every item shown.
Answers are plain numbers, in nM.

Problem: Identify measured EC150 (compound concentration showing 150% relative to the control) corresponding to "CC(C)(C(N)=O)c1ncc(Oc2nc3nc(-c4ccc(N5CCOCC5)cc4)c(Cl)cc3[nH]2)cn1"
Result: 110

Record EC150 (compound concentration showing 150% relative to the control) for all entries; do not skip any.
1. CC(C)(C(=O)O)c1cccc(Oc2nc3nc(-c4ccc(N5CCOCC5)cc4)c(Cl)cc3[nH]2)c1
2. Cc1ccc(Oc2nc3nc(-c4ccc(N5CCOCC5)cc4)c(Cl)cc3[nH]2)cc1
3. O=C(O)CCc1ccc(Oc2nc3nc(-c4ccc(N5CCOCC5)cc4)c(Cl)cc3[nH]2)cc1
4. COCC(=O)NC(C)(C)c1ccc(Oc2nc3nc(-c4ccc(N5CCOCC5)cc4)c(Cl)cc3[nH]2)cc1

Result:
1: 21; 2: 97; 3: 27; 4: 11

Record EC150 (compound concentration showing 150% relative to the control) for all entries; do not skip any.
1. Cc1ccc(Oc2nc3nc(-c4ccc(C5(CO)CC5)cc4)c(Cl)cc3[nH]2)cc1C(=O)O
2. Cc1ccc(Oc2nc3nc(-c4ccc5c(ccn5C)c4)c(Cl)cc3[nH]2)cc1C(=O)O
3. Cc1ccc(Oc2nc3nc(-c4cccc(O)c4)c(Cl)cc3[nH]2)cc1C(=O)O
4. CCc1ccc(Oc2nc3nc(-c4ccc(N5CCOCC5)cc4)c(Cl)cc3[nH]2)cc1C(=O)O

Result:
1. 1.3
2. 7
3. 110
4. 4.2

Record EC150 (compound concentration showing 150% relative to the control) for all entries; do not skip any.
1. CC(=O)NC(C)(C)c1ccc(Oc2nc3nc(-c4cccc(N(C)C)c4)c(Cl)cc3[nH]2)cc1
2. CC(C)(C(N)=O)c1ccc(Oc2nc3nc(-c4ccc(N5CCOCC5)cc4)c(Cl)cc3[nH]2)cn1
3. Cc1ccc(Oc2nc3nc(-c4ccc(N5CCOCC5)cc4)c(Cl)cc3[nH]2)cc1C(=O)NC#N

Result:
[82, 1600, 33]

Record EC150 (compound concentration showing 150% relative to the control) for all entries; do not skip any.
1. Cc1ncc(Oc2nc3nc(-c4ccc(N5CCOCC5)cc4)c(Cl)cc3[nH]2)cn1
2. O=C(O)c1cc(Oc2nc3nc(-c4ccc(N5CCOCC5)cc4)c(Cl)cc3[nH]2)ccc1Cl
3. Clc1cc2[nH]c(Oc3ccccc3)nc2nc1-c1ccc(N2CCOCC2)cc1

Result:
1. 690
2. 68
3. 190
